Assay read-out MIC; system under study: Streptococcus pyogenes 930.
Give bare numbers, in µg/mL.

Kindly give each listed record's MIC.
1. CC[C@H]1OC(=O)[C@H](C)C(=O)[C@H](C)[C@@H](O[C@@H]2O[C@H](C)C[C@H](N(C)C)[C@H]2O)[C@@]2(C)C[C@@H](C)C(=O)[C@H](C)[C@H]3N(CCOCc4ccccc4C=CCO2)C(=O)O[C@]13C
2. CC[C@H]1OC(=O)[C@H](C)[C@@H](O[C@H]2C[C@@](C)(OC)[C@@H](O)[C@H](C)O2)[C@H](C)[C@@H](O[C@@H]2O[C@H](C)C[C@H](N(C)C)[C@H]2O)[C@@]2(C)C[C@@H](C)C(=O)[C@H](C)[C@H]3N(CC(=O)CC=CCO2)C(=O)O[C@]13C
3. CC[C@H]1OC(=O)[C@H](C)[C@@H](O[C@H]2C[C@@](C)(OC)[C@@H](OC(C)=O)[C@H](C)O2)[C@H](C)[C@@H](O[C@@H]2O[C@H](C)C[C@H](N(C)C)[C@H]2O)[C@@]2(C)C[C@@H](C)C(=O)[C@H](C)[C@H]3N(CCNCc4cccc(c4)C=CCO2)C(=O)O[C@]13C

Found:
[50, 100, 25]

Origin of values: patent US6046171A
